Assay: qHTS assay to identify small molecule antagonists of the glucocorticoid receptor (GR) signaling pathway - cell viability counter screen (AID 720693); further: nearly all actives have a fitted effect of over 55% in size
Settings: GR-bla HeLa viability, CellTiter-Glo luminescence, 18 h, with 5 nM dexamethasone present; series mostly up to 58.5 µM
Source text: National Center for Advancing Translational Sciences [NCATS] NIH Chemical Genomics Center [NCGC] U.S. Environmental Protection Agency [EPA] National Institutes of Environmental Health Sciences [NIEHS] National Toxicology Program [NTP] U.S. Food and Drug Administration [FDA] The Glucocorticoid receptor (GR) is one of the members of the nuclear receptor family of ligand-dependent transcription factors. […] The activation of the reporter gene under culture conditions can be detected by fluorescence intensity. […]
Inconclusive results are not listed. The source made the active and inactive calls. The call rests on the fitted dose curve; in most records, active means well fitted cell-killing curve with a large enough effect in the repeat runs; inconclusive means weak or mixed curves, or effect the other way; inactive means no such curve, though single readings can be large or run the other way.
endpoint-label: outcome

# example entries with known answers
compound=CN1CCC[C@@H]1c1cccnc1 endpoint_label=outcome reported_value=inactive
compound=O=S1(=O)c2cccc3cccc(c23)N1CCCN1CCN(c2ccc(F)cc2)CC1 endpoint_label=outcome reported_value=inactive
compound=CCCCc1cc2ccccc2c(OCCN(C)C)n1 endpoint_label=outcome reported_value=inactive
compound=CCCC(=O)OCC endpoint_label=outcome reported_value=inactive

Dear colleague, I am looking for the recorded outcome of the following compound: `CC(=O)O[C@H]1C[C@@H]2CC[C@@H]3[C@H](CC[C@@]4(C)[C@H]3C[C@H]([N+]3(C)CCCCC3)[C@@H]4OC(C)=O)[C@@]2(C)C[C@@H]1N1CCCCC1`
inactive

// returns reported outcome for input `NC(N)=N/N=C/c1c(Cl)cccc1Cl`
inactive

====

Assay: Caspase-3/7 induction in CHO-K1 cells by small molecules, qHTS cell viability counter screen (AID 1346979); further: nearly all actives have a fitted effect of over 35% in size; further: potency means the concentration at half of the fitted maximal effect
Details: CellTiter-Fluor fluorescence, 17 h; series mostly up to 92.4 µM
Records with an inconclusive call do not appear. The source made the active and inactive calls. The call rests on the fitted dose curve; in most records, active means well fitted cell-killing curve with a large enough effect in the repeat runs; inconclusive means weak or mixed curves, or effect the other way; inactive means no such curve, though single readings can be large or run the other way.
endpoint-label: Potency

Study these solved cases before continuing.
molecule=C=C(C)C(=O)OCCN(C)C endpoint_label=Potency reported_value=inactive
molecule="CCCCOC(=O)c1ccccc1C(=O)OCC(CC)CCCC (stereo not given)" endpoint_label=Potency reported_value=inactive
molecule=CCN(CC)CCOc1ccc2c(c1)C(=O)c1cc(OCCN(CC)CC)ccc1-2 endpoint_label=Potency reported_value="26.6 µM (active)"
molecule="CC(O)C1CCCCC1 (stereo not given)" endpoint_label=Potency reported_value=inactive
molecule=CC1=CC(=O)/C(=C(/C)O)C(=O)O1 endpoint_label=Potency reported_value=inactive

Fill in the blank: the reported Potency of `Oc1ccc2c(c1)OCO2` is ____.
inactive

Which Potency value belongs to `CN1CCC[C@@H]1c1cccnc1` ?
inactive

May I ask what Potency has been recorded for `N#CCc1cccc(C(F)(F)F)c1` ?
inactive

Quick check: Potency of `C=CCCCCCC` ?
inactive

Any idea what Potency was measured for `NCCCN(CCO)CCO` ?
inactive

Please report the recorded Potency for CC(=O)/C(C)=C/C1C(C)=CCCC1(C)C (stereo not given) .
inactive

Bench note: what Potency did `O=C(Cl)c1c(Cl)cccc1Cl` show?
inactive

// lookup Potency for `C=CC(=O)OCCOC(=O)CCC(=O)O`
inactive

May I ask what Potency has been recorded for `O=S1(=O)N=C(O)c2ccccc21` ?
inactive

Form field: reported Potency of `NC(=S)N/N=C/c1cccnc1`
inactive

Fill blank: measured Potency of the molecule `O=S1(=O)c2cccc3cccc(c23)N1CCCN1CCN(c2ccc(F)cc2)CC1` is ____.
inactive

Which Potency value belongs to `CCCCOCCOCCOCCOCCO` ?
inactive

Return reported Potency; argument: `Cc1ccc(C(C)c2ccc(C)c(C)c2)cc1C`
inactive

Dear colleague, I am looking for the recorded Potency of the following molecule: `Cn1c(NCCN(CCO)CCCc2ccc([N+](=O)[O-])cc2)cc(=O)n(C)c1=O`
inactive
